measuredTarget: Torsin-1A (Homo sapiens) (UniProt O14656)
Sequence (O14656 whole entry, looked up): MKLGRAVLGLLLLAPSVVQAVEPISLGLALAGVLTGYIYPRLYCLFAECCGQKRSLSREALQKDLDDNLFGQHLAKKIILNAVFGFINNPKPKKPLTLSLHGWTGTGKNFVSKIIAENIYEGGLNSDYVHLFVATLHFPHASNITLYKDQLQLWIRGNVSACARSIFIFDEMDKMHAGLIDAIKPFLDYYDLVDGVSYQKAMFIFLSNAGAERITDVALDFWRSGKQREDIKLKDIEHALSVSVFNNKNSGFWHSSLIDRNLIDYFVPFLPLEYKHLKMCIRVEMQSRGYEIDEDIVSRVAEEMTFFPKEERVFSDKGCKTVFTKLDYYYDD
testProtocol: torsin A binders from cell lysate, primary screen, small-molecule microarray, wild-type, 635/667 nm (AID 1149)
statedConditions: COS7 hTOR1A-WT lysate, 635 nm fluorescence, higher = more signal
Output: class label from composite z-score. Mapping: 1 = under -0.08, 2 = from -0.08 up to 0.4, 3 = 0.4 and over

compound	measuredTarget	cat
CO[C@H]1O[C@H](CO)[C@@H](OC(=O)CCc2ccccc2)[C@H](OC(=O)c2cc3ccccc3[nH]2)[C@H]1OC(=O)c1cc2ccccc2[nH]1	Torsin-1A (Homo sapiens) (UniProt O14656)	3
NCCCCCNC(=O)[C@H]1C[C@H]2C(=O)N[C@@H](Cc3ccccc3)C(=O)N2[C@H]1c1ccc(O)cc1	Torsin-1A (Homo sapiens) (UniProt O14656)	3
Cc1ccccc1C(O)C1C=CC2C(=O)N(c3ccccc3)C(=O)C2N1Nc1ccc([N+](=O)[O-])cc1 (stereo not given)	Torsin-1A (Homo sapiens) (UniProt O14656)	3
Cc1ccc(S[C@]2(C(=O)NCC(C)C)CC(=O)N(C3Cc4ccccc4C3)[C@@H]2c2ccc(CO)cc2I)cc1	Torsin-1A (Homo sapiens) (UniProt O14656)	1
COc1cc(NN2C(C(O)C3CCCCC3)C=CC3C(=O)N(C)C(=O)C32)cc(OC)c1OC (stereo not given)	Torsin-1A (Homo sapiens) (UniProt O14656)	1
O=c1cccc(-c2ccc(F)cc2)o1	Torsin-1A (Homo sapiens) (UniProt O14656)	2
O=C1C2C=CC(C(O)C=Cc3ccc([N+](=O)[O-])cc3)N(Nc3ccccc3)C2C(=O)N1c1ccccc1 (stereo not given)	Torsin-1A (Homo sapiens) (UniProt O14656)	1
COc1cc(NN2C(C(O)c3ccccc3)C=CC3C(=O)N(C)C(=O)C32)cc(OC)c1OC (stereo not given)	Torsin-1A (Homo sapiens) (UniProt O14656)	2
COCCOC(=O)N1C(=O)[C@@]2(c3cc(C#CCNC(N)=O)ccc31)[C@H](c1ccc(OCCO)cc1)N1[C@H](c3ccccc3)[C@H](c3ccccc3)OC(=O)[C@H]1[C@@H]2C(N)=O	Torsin-1A (Homo sapiens) (UniProt O14656)	2
CC(C)=CCCC(C)=CC(O)C1C=CC2C(=O)N(c3ccccc3)C(=O)C2N1Nc1ccccc1F (stereo not given)	Torsin-1A (Homo sapiens) (UniProt O14656)	1
C=CCC(OC(C)=O)[C@@H]1[C@@H](N(Cc2cccc3ccccc23)C(=O)c2ccc(-c3ccccc3)cc2)c2cc(OCCCO)ccc2N1C(=O)c1ccc(-c2ccccc2)cc1 (stereo not given in full)	Torsin-1A (Homo sapiens) (UniProt O14656)	2
CC(CO)N1C(=O)[C@@H]2[C@H]3C(=O)OCC=C[C@H]3OC23C=CCN(c2ccc(Cl)cc2)C(=O)[C@@H]13 (stereo not given in full)	Torsin-1A (Homo sapiens) (UniProt O14656)	1
CN(C)CCCC[C@@H]1NC(=O)[C@@H]2C[C@H](C(=O)O)[C@H](c3cccc(OCCO)c3)N2C1=O	Torsin-1A (Homo sapiens) (UniProt O14656)	1
COc1ccc(C(O)C2C=CC3C(=O)N(c4ccccc4)C(=O)C3N2Nc2ccc(C(C)C)cc2)c2ccccc12 (stereo not given)	Torsin-1A (Homo sapiens) (UniProt O14656)	3
O=C1C[C@@](C(=O)NCc2ccccc2)(c2ccc([N+](=O)[O-])cc2)[C@@H](c2ccc(CO)cc2I)N1CC12CC3CC(CC(C3)C1)C2	Torsin-1A (Homo sapiens) (UniProt O14656)	3
CCCCC=C[C@@H](NC(=O)c1ccccc1)c1ccccc1	Torsin-1A (Homo sapiens) (UniProt O14656)	2
CCOC(=O)C[C@H]1[C@H](OC(=O)c2ccccc2-c2ccccc2)[C@@H](NC(=O)c2ccccc2)c2cc(OCCCO)ccc2N1C(=O)c1ccccc1	Torsin-1A (Homo sapiens) (UniProt O14656)	2
C=C(C(=O)CC[C@@H](OC(=O)c1ccccc1-c1ccccc1C(=O)O)c1ccccc1OCCO)C(C)C	Torsin-1A (Homo sapiens) (UniProt O14656)	3

* * *

z-score values for the compounds below.
testProtocol: PSAC antagonists in infected red cells, primary screen, cell-based, P. falciparum Indochina, OD700, 18 h (AID 1157)
statedConditions: P. falciparum Indochina infected erythrocytes, osmotic lysis OD700, 18 h; higher = more signal, called active from +8 up or from −8 down
parameterMeasured: z-score

In [3]: df
Out[3]:
                                   compound  parametermeasured  reported
0  CC(C)c1ccc(NN2C(C(O)Cc3ccccc3)C=CC3C(=O)N(c4ccccc4)C(=O)C32)cc1 (stereo not drawn)            z-score      1.05
1  COC(=O)[C@@]1(Cc2ccccc2)[C@H]2c3cc(C(=O)N(C)C)n(CCn4cc([N+](=O)[O-])nc4C)c3C[C@H]2CN1C(=O)c1ccccc1            z-score    -0.956
2                      CCOC(=O)C=Cc1ccccc1O            z-score     -1.43

* * *

Entries annotated with measured z-score
testProtocol: basal S. cerevisiae growth modulation, no modifier, primary screen, OD600, strain BY4716, 24 h, basal condition (AID 1173)
statedConditions: OD600, 24 h, higher = more signal, called active from +8 up or from −8 down
Calls of active or inactive are those of the source.
parameterMeasured: z-score

compound	reported
O=C1C[C@@](C(=O)NCC(F)(F)F)(c2ccc([N+](=O)[O-])cc2)[C@@H](c2ccc(CO)cc2)N1CC12CC3CC(CC(C3)C1)C2	0.188 (inactive)
Nc1cc(Br)ccc1C(=O)O	-0.811 (inactive)
O=C1O[C@H](c2ccccc2)[C@H](c2ccccc2)N2[C@H]1[C@@H](C(=O)N1CCCCCCC1)[C@]1(C(=O)Nc3ccc(C#CC4(O)CCCCCC4)cc31)[C@H]2c1ccc(O)cc1	-0.101 (inactive)
O=C1OCC=C[C@H]2OC34C=CCN(c5ccc6ccccc6c5)C(=O)[C@H]3N(CCCCCO)C(=O)[C@@H]4[C@@H]12 (stereo not given in full)	-0.459 (inactive)
COCCOC(=O)N1C(=O)[C@@]2(c3cc(C#CCCO)ccc31)[C@H](C(=O)N1CCCCCCC1)[C@H]1C(=O)O[C@H](c3ccccc3)[C@H](c3ccccc3)N1[C@@H]2c1ccccc1OCCO	0.348 (inactive)
COCCOC(=O)N1C(=O)[C@@]2(c3cc(C#CCNC(N)=O)ccc31)[C@H](c1ccc(O)cc1)N1[C@H](c3ccccc3)[C@H](c3ccccc3)OC(=O)[C@H]1[C@@H]2C(N)=O	0.282 (inactive)
COc1ccc([Si](C)(C)[C@H]2[C@H](CCO)O[C@@]3(C(=O)N(Cc4ccccc4)c4ccc(N5C(=O)c6ccccc6Oc6ccccc65)cc43)[C@@H]2C)cc1	1.09 (inactive)
CCCCCCCCCCC(O)C1C=CC2C(=O)N(C)C(=O)C2N1Nc1cc(OC)c(OC)c(OC)c1 (stereo not given)	-1.36 (inactive)
CCCCC=C[C@@H](NC(=O)c1ccccc1)c1ccccc1	0.483 (inactive)
C[C@@H]1ON(c2ccc(I)cc2)[C@H](c2ccc(OC(=O)OC(C)(C)C)cc2)[C@H]1C(=O)N1C(=O)OC[C@H]1Cc1ccccc1	-1.24 (inactive)

* * *

measuredTarget: NADPH oxidase 2 (Homo sapiens)
testProtocol: NOX2-dependent H2O2 signal modulators, primary screen, NOX inhibitor project, cell-based, HEK293-NOX2, PMA-stimulated, Amplex Red fluorescence (AID 1159); note: test concentration not given here
statedConditions: 45 min, higher = more signal, called active from +8 up or from −8 down
parameterMeasured: z-score

compound	parameterMeasured	reported
C=CCC(OC(C)=O)[C@@H]1[C@@H](N(Cc2cccc3ccccc23)C(=O)c2ccc(-c3ccccc3)cc2)c2cc(OCCCO)ccc2N1C(=O)c1ccc(-c2ccccc2)cc1 (stereo partly drawn)	z-score	0.582
CCCNC(=O)[C@@]1(Sc2ccc(C)cc2)CC(=O)N(C2CCCCC2)[C@@H]1c1ccc(CO)cc1I	z-score	0.82
CC(C)CNC(=O)[C@@H]1c2ccccc2C(=O)N(C2CCCCC2)[C@H]1c1ccc(CO)cc1	z-score	-0.318
C=C[C@@H](OC)[C@H](OC(=O)Nc1ccc(SC)cc1)c1ccc(OCCO)cc1	z-score	0.403
CCOC(=O)C1=CCC(c2ccco2)N(S(=O)(=O)c2ccc(C)cc2)C1 (stereo not drawn)	z-score	-0.176
C[C@@H]1ON(c2ccc(I)cc2)[C@H](c2ccc(OC(=O)OC(C)(C)C)cc2)[C@H]1C(=O)N1C(=O)OC[C@H]1Cc1ccccc1	z-score	-5.57
CC(C)C[C@@H]1NC(=O)[C@@]23C(=O)N[C@@H](Cc4ccccc4)C2[C@H](C)[C@@]2(C)O[C@H]2C3/C=C/C/C=C\CNC(=O)[C@@H](C)NC1=O (stereo partly drawn)	z-score	0.848
CCCCCCCCCCC(O)C1C=CC2C(=O)N(C)C(=O)C2N1Nc1cc(OC)c(OC)c(OC)c1 (stereo not drawn)	z-score	-2.1
